pIC50 for assorted compounds
- Tested on: MDA-MB-231
- TEST DETAILS: In vitro cytotoxicity MTT assay
- Format: cell-based, human
- CONDITION CONTEXT: Homo sapiens, MDA-MB-231, 72 h, IC50 ± SD
pIC50: −log10 of the molar value.

{"columns": ["MOLECULAR STRING", "SIGN", "pIC50"],
 "data": [
  ["Nc1cc(C(F)(F)F)ccc1NC(=O)c1ccc(NC(=O)C/C=C/c2cccnc2)cn1", "=", 5.77],
  ["Nc1cc(F)ccc1NC(=O)c1ccc(NC(=O)C/C=C/c2cccnc2)cn1", "=", 5.79],
  ["Cc1ccc(CCCC(=O)Nc2ccc(C(=O)Nc3ccc(C(F)(F)F)cc3N)nc2)cn1", "<", 4.30],
  ["Cc1ccc(CCCC(=O)Nc2ccc(C(=O)Nc3ccccc3N)nc2)cn1", "=", 5.24],
  ["Cc1ccc(/C=C/CC(=O)Nc2ccc(C(=O)Nc3ccc(F)cc3N)cn2)cn1", "=", 4.30]
]}

###

- Test system: MDA-MB-453
- TEST DETAILS: In vitro cytotoxicity MTT assay
- Format: cell-based, human
- CONDITION CONTEXT: Homo sapiens, MDA-MB-453, 72 h, IC50 ± SD
IC50 for assorted compounds
REPORTED ENDPOINT: IC50 (nM)

{"columns": ["COMPOUND", "RESULT VALUE"],
 "data": [
  ["Cc1ccc(CCCC(=O)Nc2ccc(C(=O)Nc3ccc(C(F)(F)F)cc3N)nc2)cn1 [GNTbm-25]", 19100],
  ["Cc1ccc(CCCC(=O)Nc2ccc(C(=O)Nc3ccccc3N)nc2)cn1 [GNTbm-19]", 1810],
  ["Nc1cc(C(F)(F)F)ccc1NC(=O)c1ccc(NC(=O)C/C=C/c2cccnc2)cc1 [GNTbm-33]", 1940],
  ["Nc1cc(F)ccc1NC(=O)c1ccc(CNC(=O)/C=C/c2cccnc2)cc1 [Chidamide, reference compound]", 1770]
]}

###

IC50 for assorted compounds
- Tested on: MDA-MB-453
- TEST DETAILS: In vitro cytotoxicity MTT assay
- Type: cell-based, human
- CONDITION CONTEXT: Homo sapiens, MDA-MB-453, 72 h, IC50 ± SD
REPORTED ENDPOINT: IC50 (µM)

{"columns": ["MOLECULAR STRING", "RESULT VALUE"],
 "data": [
  ["Cc1ccc(CCCC(=O)Nc2ccc(C(=O)Nc3ccc(F)cc3N)nc2)cn1", 3.78],
  ["Nc1cc(C(F)(F)F)ccc1NC(=O)c1ccc(NC(=O)C/C=C/c2cccnc2)cn1", 2.28],
  ["Cc1ccc(/C=C/CC(=O)Nc2ccc(C(=O)Nc3ccc(C(F)(F)F)cc3N)nc2)cn1", 15.8],
  ["Cc1ccc(/C=C/CC(=O)Nc2ccc(C(=O)Nc3ccccc3N)nc2)cn1", 1.59]
]}

###

Percentage of Cell Cycle Distribution G2/M for assorted compounds
- Tested on: SW48 cells
- TEST DETAILS: Cell cycle arrest by PI flow cytometry
- Assay type: cell-based, human
- CONDITION CONTEXT: SW48, 2 μM, 72 h
REPORTED ENDPOINT: Percentage of Cell Cycle Distribution G2/M (%)

{"columns": ["MOLECULAR STRING", "RESULT VALUE"],
 "data": [
  ["Nc1ccccc1NC(=O)c1ccc(NC(=O)C/C=C/c2cccnc2)cc1", 32.5],
  ["Nc1cc(F)ccc1NC(=O)c1ccc(NC(=O)C/C=C/c2cccnc2)cn1", 18.7],
  ["Nc1ccccc1NC(=O)c1ccc(NC(=O)C/C=C/c2cccnc2)cn1", 34.6],
  ["Nc1cc(F)ccc1NC(=O)c1ccc(NC(=O)C/C=C/c2cccnc2)cc1", 38.9]
]}
